System name: T1, α4β1 integrin, endogenous on HSB T cells (UniProt P13612 34-1032; P05556 21-798, limits assumed)
T1 construct: whole, on cells; also called α4 integrin; alpha 4 integrin
T1 sequence (P13612 34-1032 limits assumed, chain 1 of 2): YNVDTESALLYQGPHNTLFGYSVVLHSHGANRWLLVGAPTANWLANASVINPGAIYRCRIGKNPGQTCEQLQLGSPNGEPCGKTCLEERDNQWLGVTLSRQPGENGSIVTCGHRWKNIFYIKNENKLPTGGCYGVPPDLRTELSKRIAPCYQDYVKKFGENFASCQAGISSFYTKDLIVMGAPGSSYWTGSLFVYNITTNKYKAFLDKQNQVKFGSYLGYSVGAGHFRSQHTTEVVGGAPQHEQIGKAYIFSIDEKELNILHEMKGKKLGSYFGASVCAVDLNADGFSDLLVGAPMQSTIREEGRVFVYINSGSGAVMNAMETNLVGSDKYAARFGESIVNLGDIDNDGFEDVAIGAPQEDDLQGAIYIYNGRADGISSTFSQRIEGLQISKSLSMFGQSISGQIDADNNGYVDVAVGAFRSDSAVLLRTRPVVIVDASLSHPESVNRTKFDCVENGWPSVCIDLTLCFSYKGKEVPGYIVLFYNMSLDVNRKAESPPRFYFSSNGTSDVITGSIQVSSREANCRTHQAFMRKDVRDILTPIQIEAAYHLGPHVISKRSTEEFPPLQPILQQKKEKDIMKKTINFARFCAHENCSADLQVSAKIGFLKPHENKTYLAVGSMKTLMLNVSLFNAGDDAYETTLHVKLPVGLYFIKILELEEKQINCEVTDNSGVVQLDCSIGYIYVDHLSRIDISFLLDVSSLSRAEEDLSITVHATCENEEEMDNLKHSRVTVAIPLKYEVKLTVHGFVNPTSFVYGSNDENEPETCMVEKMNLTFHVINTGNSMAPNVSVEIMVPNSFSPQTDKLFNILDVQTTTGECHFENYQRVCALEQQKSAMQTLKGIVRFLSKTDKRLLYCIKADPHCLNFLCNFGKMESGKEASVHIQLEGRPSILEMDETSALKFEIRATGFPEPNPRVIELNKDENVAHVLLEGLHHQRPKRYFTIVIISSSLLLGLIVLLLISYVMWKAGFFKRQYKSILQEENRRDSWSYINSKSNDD
T1 sequence (P05556 21-798 limits assumed, chain 2 of 2): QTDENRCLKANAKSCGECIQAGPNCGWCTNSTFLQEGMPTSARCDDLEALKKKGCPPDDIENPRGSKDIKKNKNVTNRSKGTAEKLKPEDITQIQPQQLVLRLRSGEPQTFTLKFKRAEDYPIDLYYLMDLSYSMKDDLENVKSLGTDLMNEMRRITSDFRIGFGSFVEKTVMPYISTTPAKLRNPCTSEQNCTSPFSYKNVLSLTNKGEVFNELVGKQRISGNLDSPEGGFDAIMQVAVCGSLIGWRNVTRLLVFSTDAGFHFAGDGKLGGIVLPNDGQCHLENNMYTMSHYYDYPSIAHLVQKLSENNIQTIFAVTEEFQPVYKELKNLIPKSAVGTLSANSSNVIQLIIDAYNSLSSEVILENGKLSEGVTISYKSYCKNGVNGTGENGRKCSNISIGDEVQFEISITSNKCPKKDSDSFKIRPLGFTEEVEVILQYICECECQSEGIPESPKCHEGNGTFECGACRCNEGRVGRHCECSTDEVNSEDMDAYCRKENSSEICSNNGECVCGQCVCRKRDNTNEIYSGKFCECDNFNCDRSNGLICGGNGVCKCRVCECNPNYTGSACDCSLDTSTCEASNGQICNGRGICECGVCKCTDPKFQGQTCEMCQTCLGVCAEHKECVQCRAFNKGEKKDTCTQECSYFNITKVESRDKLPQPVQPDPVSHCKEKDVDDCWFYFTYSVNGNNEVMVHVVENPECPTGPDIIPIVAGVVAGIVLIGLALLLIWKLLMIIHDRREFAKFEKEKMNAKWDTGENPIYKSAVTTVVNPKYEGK
Measurement protocol: inhibition of Mn-enhanced adhesion of calcein-loaded HSB cells to captured JAM2-Fc (FIG. 12B)
Bridges are numbered along the chain shown (N, C = ends). Where no end group is shown, it is not given here.
Observable: IC50

Task: Report IC50 for CWLDVC (bridge 1-6; also: cyclic hexapeptide, bond type between C* residues not given here) [TBC 772, cyclic hexapeptide (C*WLDVC*), antagonist of alpha 4 integrins] please.
Output: ~60 nM
